Hello, the source for this data is patent US10064926B2, in case you need it.

# Tgt: HLA-A*02 (Homo sapiens, UniProt P04439, D140Y/D185E/D98H/E176V/E277Q/G131W/G231S/I119V/I121R/I166T/I218V/N151K/N90K/P208A/P217A/Q86G/Q94H/R138H/R169H)
# Test Method Notes: UV-ligand exchange / peptide binding to MHC class I (beta2m ELISA)
# Recorded Conditions: Table 10B; peptide exchange yield; HLA-A*02 peptides
Readout Type: Peptide exchange (MHC class I binding score)

{"Substance": "16 (SLLGGNIRL; listed as Homo sapiens) [compound 16]", "Meas Value": "“++++” (≥75% = ++++)"}
{"Substance": "21 (QLIEVSSPITL; listed as Homo sapiens) [compound 21]", "Meas Value": "“++++” (≥75% = ++++)"}
{"Substance": "234 (YLEPYLKEV; listed as Homo sapiens) [compound 234]", "Meas Value": "“++++” (≥75% = ++++)"}

###

# Tgt: HLA-A*02 (Homo sapiens, UniProt P04439, D140Y/D185E/D98H/E176V/E277Q/G131W/G231S/I119V/I121R/I166T/I218V/N151K/N90K/P208A/P217A/Q86G/Q94H/R138H/R169H)
# Test Method Notes: UV-ligand exchange / peptide binding to MHC class I (beta2m ELISA)
# Recorded Conditions: Table 10B; peptide exchange yield; HLA-A*02 peptides
Readout Type: Peptide exchange (MHC class I binding score)

{"Substance": "119 (YLDKNLTVSV; listed as Homo sapiens) [compound 119]", "Meas Value": "“+++” (≥50 = +++)"}
{"Substance": "70 (KLLDLETERILL; listed as Homo sapiens) [compound 70]", "Meas Value": "“++++” (≥75% = ++++)"}
{"Substance": "302 (KIQEILTQV; listed as Homo sapiens) [compound 302]", "Meas Value": "“++++” (≥75% = ++++)"}
{"Substance": "101 (SLWEGGVRGV; listed as Homo sapiens) [compound 101]", "Meas Value": "“+++” (≥50 = +++)"}

###

# Tgt: HLA-A*02 (Homo sapiens, UniProt P04439, D140Y/D185E/D98H/E176V/E277Q/G131W/G231S/I119V/I121R/I166T/I218V/N151K/N90K/P208A/P217A/Q86G/Q94H/R138H/R169H)
# Test Method Notes: UV-ligand exchange / peptide binding to MHC class I (beta2m ELISA)
# Recorded Conditions: Table 10B; peptide exchange yield; HLA-A*02 peptides
Readout Type: Peptide exchange (MHC class I binding score)

{"Substance": "87 (RLFEENDVNL; listed as Homo sapiens) [compound 87]", "Meas Value": "“+++” (≥50 = +++)"}
{"Substance": "170 (SLHNGVIQL; listed as Homo sapiens) [compound 170]", "Meas Value": "“+++” (≥50 = +++)"}
{"Substance": "91 (RLPDIPLRQV; listed as Homo sapiens) [compound 91]", "Meas Value": "“+++” (≥50 = +++)"}
